- System: 786-0 renal
- PROTOCOL_TEXT: NCI tumour cell line growth inhibition, 48 h
MEASURED_PARAMETER: TGI

Some molecules with known TGI results, for comparison:
INSERT INTO measurements (molecule, system_tested, experimental_value) VALUES
  ('CN1C(=O)N[C@H]2[C@@H]3NC(=O)c4ccc(Br)n4[C@@H]3C[C@]21O', '786-0 renal', '1.82 µM'),
  ('C=C1C(=O)O[C@@H]2C[C@]3(C)CC[C@]4(C)[C@H](CC[C@@H]5[C@@]6(C)CCC(=O)C(C)(C)[C@@H]6CC[C@]54C)[C@H]3[C@H]12', '786-0 renal', '30.2 µM'),
  ('Cc1ccc(C)c(C2NC(=O)c3ccccc3N2)c1 (centres undefined)', '786-0 renal', '> 64 µM'),
  ('COc1ccc(OC)c2c1[nH]c(=O)c1c3ncccc3cn21', '786-0 renal', '> 100 µM');

Please state TGI for every molecule in the list that follows.
1. CCCN(CCCC(NC(C)=O)C(=O)NCc1ccccc1)C(=O)NCCCl (centres undefined)
2. CCOC(=O)C(NC(=O)c1ccccc1)(N1CCOCC1)C(F)(F)F (centres undefined)
3. CCOC(=O)CC1C(COC(=O)NC)OC(n2cnc3c(NC(=O)Nc4ccccc4)ncnc32)C1O[Si](C)(C)C(C)(C)C (centres undefined)
4. CC(C)C1=CC23CCC4C(C)(C(=O)O)CCCC4(C)C2CC1C1C(=O)N(c2ccccc2)C(=O)C13 (centres undefined)
5. Cc1cc(S(=O)(=O)Nc2nc(N)nc(N(C)C)n2)c(SCC(=O)O)cc1Cl

A:
1. > 100 µM
2. > 100 µM
3. 21.5 µM
4. > 100 µM
5. > 10 µM

###

- System: UO-31 renal
- PROTOCOL_TEXT: NCI tumour cell line growth inhibition, 48 h; in the data active = GI50 below about 0.43 µM; inactive = the rest
Respond with a class label; see true = active, false = inactive

The examples below pair each entry with its known result.
INSERT INTO measurements (compound, category_label) VALUES
  ('COC(=O)c1cc(O)c2c(c1C(=O)OC)C[C@H]1[C@@H]3CC=C4C[C@@H](O)CC[C@]4(C)[C@H]3CC[C@]21C', 'false'),
  ('CC(C)(C)CC(C)(C)NCc1cc(C(C)(C)C)cc(CNC(C)(C)CC(C)(C)C)c1O', 'false'),
  ('COc1nc(N)nc2c1ncn2C1OC(CO)C(O)C1O (centres undefined)', 'false');

Q: Status in this test for OCC(O)c1nc2ccc3[nH]ncc3c2c2c1CCCC2 (centres undefined) ?
A: false

Q: What call does the record list for COc1cc(-c2nc(-c3nc4ccccc4[nH]3)cc3c2[nH]c2ccccc23)cc(OC)c1OC ?
A: false

Q: I would be grateful if you could indicate the recorded call for Cn1c2ccc(Br)cc2c2c3c(c4c5ccccc5[nH]c4c21)C(=O)N(O)C3=O .
A: true

Q: Give the logged outcome of this assay for the following compound: Cc1nc(N2CCC3(CC2)CO[C@@H](C)[C@H]3N)c(CO)nc1Sc1ccnc(N)c1Cl
A: false

Q: Identify the outcome logged in this assay for the compound shown: Cc1ccc(N(CC(=O)Nc2ccc(S(=O)(=O)N3CCC(N4CCCC4)CC3)cc2)S(=O)(=O)c2ccc(Cl)cc2)cc1
A: false

Q: Hi, do you know how CCN(CC)CCCNC(=O)c1c2c(n3ccccc13)C(=O)c1ncccc1C2=O came out in this test?
A: false

###

- System: SF-295 CNS
- PROTOCOL_TEXT: NCI tumour cell line growth inhibition, 48 h; in the data active = GI50 below about 0.43 µM; inactive = the rest
Outcome (select one): active, inactive

Before answering, review these 5 worked examples.
INSERT INTO measurements (molecule, category_label) VALUES
  ('O=C(/C=C/c1ccccc1)n1c(-c2ccc(Cl)cc2)nc2ccccc21', 'inactive'),
  ('CCn1c(-c2cc3ccccc3cc2O)nn(C(=O)c2c(Cl)cccc2Cl)c1=S', 'inactive'),
  ('COc1cc(Nc2nc3ccccc3cc2C(=O)Nc2ccc(F)c(F)c2)cc(OC)c1OC', 'inactive'),
  ('O=C(Nc1ccc(-n2ccc3c(NC(=O)c4ccccc4)ncnc32)cc1)Nc1cccc(Cl)c1Cl', 'inactive'),
  ('C=C(OC1C(C)=C2C(C1OC(=O)CCCCCCC)C(C)(OC(C)=O)CC(OC(=O)CCC)C1(O)C2OC(=O)C1(C)O)/C(C)=C/C (stereo not drawn)', 'active');

Q: How did this test come out for CCOC(=O)CC1C(COC(=O)NC)OC(n2cnc3c(NC(=O)Nc4ccccc4)ncnc32)C1O[Si](C)(C)C(C)(C)C (stereo not drawn) ?
A: inactive

Q: For CC(=O)[CH-]C(=O)c1ccccc1.CC(=O)[CH-]C(=O)c1ccccc1.CCOCC[O-].CCOCC[O-].[Ti+4] , what call appears in the results of this test?
A: inactive

Q: Which outcome did this test record for the molecule CCN(CC)CCCNC(=O)c1c2c(n3ccccc13)C(=O)c1ncccc1C2=O ?
A: inactive

Q: Write down the call the test reported for this molecule. Item: CC(C)(C)CC(C)(C)NCc1cc(C(C)(C)C)cc(CNC(C)(C)CC(C)(C)C)c1O
A: inactive

Q: Check the results log: what was the call for Cn1c2ccc(Br)cc2c2c3c(c4c5ccccc5[nH]c4c21)C(=O)N(O)C3=O ?
A: active

Q: Which result was noted for this molecule in the test: COc1ccc(OC)c(-c2cc(-c3ccc(Cl)cc3)nn2-c2ccc(S(=O)(=O)NC(C)=O)cc2)c1
A: inactive

Q: Please state the recorded outcome for this molecule: COC(=O)Cc1ccc(Oc2cnc3cc(F)c(F)cc3n2)cc1
A: inactive

Q: Per the records of this test, what outcome belongs to CNC(=O)Cc1nc(-c2cccc(NS(=O)(=O)c3c(F)cccc3F)c2F)c(-c2ccnc(Nc3ccccc3)n2)s1 ?
A: inactive

###

Exercise: state measured TGI for each of the molecules provided.
- Tested on: HOP-62 NSCLC
- PROTOCOL_TEXT: NCI tumour cell line growth inhibition, 48 h

INSERT INTO measurements (molecule, experimental_value) VALUES
  ('O=C(N/N=C(/COc1ccc([N+](=O)[O-])cc1)N=Cc1ccncc1)c1ccncc1', '> 100 µM'),
  ('CC(C)(C)CC(C)(C)NCc1cc(C(C)(C)C)cc(CNC(C)(C)CC(C)(C)C)c1O', '17.9 µM'),
  ('COc1cccc(C2c3cc4c(cc3OC(N3CCCC3)C2C)OCO4)c1O (stereo not given)', '45.7 µM'),
  ('CC/C(CC(=O)CCC(=O)Nc1ccccc1[N+](=O)[O-])=N/NC(=O)C[n+]1ccccc1', '> 100 µM'),
  ('CCOC(=O)/C(C#N)=C/c1ccnc2ccccc12', '> 100 µM');

For each of the items listed, what is its TGI?
1. CCCCCCCCCCCCOCCCOP(=O)([O-])OCC[N+](C)(C)C
2. Clc1ccc(C2Nc3ccccc3C3=NCCN32)cc1 (stereo not given)
3. COC(=O)C1[C@H](c2cc(OC)c(OC)c(OC)c2)OC(=O)C1(C(=O)OC)C(=O)c1ccc2c(c1)OCO2 (stereo not given in full)

A:
1: > 100 µM; 2: > 100 µM; 3: > 100 µM

Quick request: TGI for each listed item, please.
1. CN(C)C=C1C(Cl)=C(C=O)CC(C=O)=C1Cl
2. CC(C)C1=CC23CCC4C(C)(C(=O)O)CCCC4(C)C2CC1C1C(=O)N(c2ccccc2)C(=O)C13 (stereo not given)
3. O=C1CC(c2cccc(Br)c2)n2cccc21 (stereo not given)
4. CCOC(=O)CC1C(COC(=O)NC)OC(n2cnc3c(NC(=O)Nc4ccccc4)ncnc32)C1O[Si](C)(C)C(C)(C)C (stereo not given)

A:
1: 51.7 µM; 2: > 100 µM; 3: > 100 µM; 4: 77.7 µM

Consider the following items and state reported TGI for each.
1. Cc1ccc2oc(=O)c(C(=O)Nc3nc(C45CC6CC(CC(C6)C4)C5)cs3)cc2c1
2. CCOc1cccc2ccc[n+](CC)c12
3. O=C(NCc1cccc2ccccc12)N/N=C\c1ccc(Cl)cc1
4. CN(c1ccccc1Cl)S(=O)(=O)c1ccc([N+](=O)[O-])cc1
5. CCOC(=N)CC(=O)c1ccccc1
6. CC/C=C(\C(=C/CC)[N+](=O)[O-])[N+](=O)[O-]
7. C=C(Nc1ccc([N+](=O)[O-])cc1[N+](=O)[O-])c1c/c(=N\NC(N)=S)c2ccccc2o1
8. COc1cc(Nc2nc3ccccc3cc2C(=O)Nc2ccc(F)c(F)c2)cc(OC)c1OC

A:
1. > 100 µM
2. > 100 µM
3. > 100 µM
4. > 100 µM
5. > 100 µM
6. > 100 µM
7. > 100 µM
8. 12.2 µM

Batch: TGI for all items listed.
1. COc1ccc(N2C(=O)C3c4[nH]c5ccc(F)cc5c4C4CCC(c5ccccc5)CC4C3C2=O)cc1 (stereo not given)
2. O=[N+]([O-])c1ccc(C=NCC2CCCN3CCCCC23)cc1 (stereo not given)
3. CCn1c(-c2cc3ccccc3cc2O)nn(C(=O)c2c(Cl)cccc2Cl)c1=S
4. CN/N=C(\C)C(CN(C)C)C(c1ccccc1)c1c(O)c2ccccc2oc1=O (stereo not given)
5. CCN(CC)CCNC(=O)c1cn2c(ccc3sc4ccccc4c(=O)c32)n1
6. OCC(O)c1nc2ccc3[nH]ncc3c2c2c1CCCC2 (stereo not given)

A:
["28.1 µM", "> 100 µM", "> 50 µM", "> 100 µM", "21.4 µM", "> 50 µM"]

Please look at the items below and tell me TGI for each one, in order.
1. O=C(N/N=C1/C(=O)c2c3ccccc3cc3cccc1c23)c1ccccc1
2. CC1=NN(c2nc(N)nc(CC#N)n2)C(C)(C)C1
3. COC(=O)N1CC2C3C4CC(C(c5ccccc5)=C4c4ccccc4)C3C21 (stereo not given)
4. FC(F)(F)C1(Br)C(c2ccccc2)=C1c1ccccc1

A:
1. 40.3 µM
2. > 100 µM
3. 42.5 µM
4. 39.4 µM
